This listing pairs compounds with measured pIC50.
- tgt: human P450 1A2 (Homo sapiens, UniProt P05177)
- Sequence (P05177 1-516): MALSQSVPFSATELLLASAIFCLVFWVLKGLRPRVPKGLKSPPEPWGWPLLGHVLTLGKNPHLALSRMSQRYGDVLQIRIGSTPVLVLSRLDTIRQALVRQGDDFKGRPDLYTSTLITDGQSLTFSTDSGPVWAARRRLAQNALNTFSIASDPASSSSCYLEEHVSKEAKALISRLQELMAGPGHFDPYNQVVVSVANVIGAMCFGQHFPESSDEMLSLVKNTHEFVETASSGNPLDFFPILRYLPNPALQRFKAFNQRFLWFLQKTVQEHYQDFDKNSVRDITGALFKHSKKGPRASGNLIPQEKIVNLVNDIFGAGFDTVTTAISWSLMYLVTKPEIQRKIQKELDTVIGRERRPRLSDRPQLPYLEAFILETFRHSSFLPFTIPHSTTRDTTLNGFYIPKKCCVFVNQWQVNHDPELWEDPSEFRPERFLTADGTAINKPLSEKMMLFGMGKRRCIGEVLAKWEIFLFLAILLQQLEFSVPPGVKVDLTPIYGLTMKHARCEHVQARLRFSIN
- assay.text: Methoxyresorufin O-demethylation
- Assay type: biochemical
API: returns pIC50 as number; meaning -log10 of concentration in mol/L.

compound: C#CCOc1ccc2c(c1)OC(c1ccccc1)CC2=O (stereo not drawn)
pIC50: 6.01

Kindly note the recorded pIC50 for O=c1cc(-c2ccccc2)oc2cc(O)ccc12 [Compound 7-HF, 7-hydroxy flavone, reference compound] , which is 5.59
